Attribution: patent US20160039778A1

tested_on: rat TRPV-1 receptor (Rattus norvegicus)
Construct: expressed in transfected cells; host or cells: HEK-293T
Sequence (O35433 whole entry): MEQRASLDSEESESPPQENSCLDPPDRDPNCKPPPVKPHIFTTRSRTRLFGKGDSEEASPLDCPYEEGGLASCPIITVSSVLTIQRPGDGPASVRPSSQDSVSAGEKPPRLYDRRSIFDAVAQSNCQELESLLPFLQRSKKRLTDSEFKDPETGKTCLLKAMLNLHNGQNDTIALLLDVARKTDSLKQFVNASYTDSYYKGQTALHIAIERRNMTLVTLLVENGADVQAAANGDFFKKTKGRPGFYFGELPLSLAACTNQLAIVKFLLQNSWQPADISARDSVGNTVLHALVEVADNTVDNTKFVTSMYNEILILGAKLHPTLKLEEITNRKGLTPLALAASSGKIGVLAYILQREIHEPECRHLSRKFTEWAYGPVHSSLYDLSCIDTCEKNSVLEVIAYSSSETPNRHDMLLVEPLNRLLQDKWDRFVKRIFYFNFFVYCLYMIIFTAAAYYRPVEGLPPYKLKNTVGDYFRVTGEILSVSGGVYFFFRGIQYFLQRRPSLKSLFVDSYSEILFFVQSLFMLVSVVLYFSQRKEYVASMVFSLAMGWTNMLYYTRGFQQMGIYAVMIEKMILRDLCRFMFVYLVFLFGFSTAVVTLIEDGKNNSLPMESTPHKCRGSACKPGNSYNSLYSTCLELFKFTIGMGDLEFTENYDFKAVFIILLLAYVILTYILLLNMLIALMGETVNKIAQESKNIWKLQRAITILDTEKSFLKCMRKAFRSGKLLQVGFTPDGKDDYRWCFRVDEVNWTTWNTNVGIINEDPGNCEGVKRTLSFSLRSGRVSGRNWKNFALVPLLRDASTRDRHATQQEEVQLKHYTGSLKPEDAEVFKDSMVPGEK
protocol_description: Dose response curve, temperature activation of the TRPV-1 receptor in transfected HEK-293T cells
Assay type: cell-based
run_parameters: chalcone derivatives, relative fluorescence at 50° C., HEK-293T cells transfected with rat TRPV-1, two independent experiments, ± standard deviation
observation_type: pIC50
One number for each entry, as −log10 of the molar value.

For orientation, consider the following solved cases.
COc1ccc(/C=C/C(=O)c2ccc(Br)cc2)cc1	8.41
O=C(/C=C/c1ccc(O)cc1)/C=C/c1ccc(O)cc1	9.74
O=C(/C=C/c1ccccc1)c1ccc(Br)cc1	8.99
COc1cc(C=C(Cl)C(=O)c2ccccc2)ccc1O (stereo in doubt)	9.59

Please find the next compound below.
Which pIC50 value is on record for O=C(/C=C/c1ccccc1)/C=C/c1ccccc1 ?
8.12
